ASSAY NAME: P. aeruginosa biofilm formation inhibitors, primary screen, PAO1 strain, BacTiter-Glo luminescence, LB-PBS (AID 1144)
CONDITIONS USED: 12 h, higher = more signal
Examples of compounds with documented z-score follow.
The response must contain the number and no unit.

Use the examples below as a reference point.
CC(C)[C@@H](OCc1ccccc1)[C@H](C)CON=C1[C@H]2CCn3c(=O)n(-c4ccccc4)c(=O)n3[C@H]2[C@H](O)[C@@H]2O[C@H]12
1.21
CCOC(=O)[C@H](CC(C)C)NC(=O)CCC1CC(OC(=O)NCCc2ccc(F)cc2)CC2(CCCC(COC(=O)NCCOC)O2)O1 (stereo partly drawn)
0.045
CC(C)[C@@H](OCc1ccccc1)[C@H](C)C=NO[C@H](C)c1cn([C@@H]2COC[C@H]2O)nn1
1.28
CO[C@@H](C1CCCCC1)[C@@H](C)[C@H](OCc1cccc(Br)c1)[C@@H](C)CO
0.115

In: Fill in the blank: the reported z-score of COc1ccc(O[C@H]2C=C[C@@H](c3ccccc3)O[C@@H]2CON=C2c3cc(OC)ccc3O[C@H](c3cccc(OC)c3)[C@H]2O)cc1 is ____.
Out: -0.0389

In: Fill in the blank: the reported z-score of CC1(C)O[C@H]2O[C@H]([C@H](O)CON=C3[C@H]4CCn5c(=O)n(-c6ccccc6)c(=O)n5[C@H]4[C@H](O)[C@@H]4O[C@H]34)[C@H](O)[C@H]2O1 is ____.
Out: -0.295

In: Fill in the blank: the reported z-score of CC(CCN1CCc2nc(-c3ccccc3)c(-c3ccccc3)cc2C1)=NO[C@@H](C)c1cc(-c2c(C)cc(C)cc2C)no1 is ____.
Out: -0.832

In: Fill in the blank: the reported z-score of COC(=O)[C@H](C)NC(=O)CCC1CC(OC(=O)NCc2ccc3c(c2)OCO3)CC2(CCCC(COC(=O)NCCCN3CCCC3=O)O2)O1 (stereo partly drawn) is ____.
Out: -0.202

In: Fill in the blank: the reported z-score of COc1ccc(O[C@H]2C=C[C@@H](C#Cc3ccccc3)O[C@@H]2CO)cc1 is ____.
Out: 0.451

In: Fill in the blank: the reported z-score of CCN1C(=O)[C@H]2[C@@H]3C(=CC[C@H]2C1=O)C(=O)[C@H]1O[C@H]1[C@H]3O is ____.
Out: 1.41

In: Fill in the blank: the reported z-score of O=C1C2=CC[C@H]3C(=O)N(C[C@@H]4CCCO4)C(=O)[C@H]3[C@H]2[C@H](O)[C@@H]2O[C@H]12 is ____.
Out: 0.846

* * *

MEASURED ON: Torsin-1A (Homo sapiens) (UniProt O14656)
Sequence (O14656 whole entry, looked up): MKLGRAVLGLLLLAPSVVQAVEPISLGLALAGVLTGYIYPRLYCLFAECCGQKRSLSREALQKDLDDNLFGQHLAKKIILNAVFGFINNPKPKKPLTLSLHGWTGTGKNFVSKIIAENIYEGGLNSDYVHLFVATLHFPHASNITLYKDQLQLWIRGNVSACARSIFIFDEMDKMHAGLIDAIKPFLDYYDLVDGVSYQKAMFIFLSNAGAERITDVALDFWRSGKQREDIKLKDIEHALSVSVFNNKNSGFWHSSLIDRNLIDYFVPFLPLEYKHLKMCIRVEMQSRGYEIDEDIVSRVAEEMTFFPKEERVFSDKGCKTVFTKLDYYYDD
ASSAY NAME: small-molecule binders of mutant TOR1A in lysate, primary screen, cell lysate, small-molecule microarray, COS7 lysate, 635/667 nm fluorescence (AID 1150);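 also: score pools 667 nm emission and signal to noise measuring lysate protein binding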
CONDITIONS USED: COS7 hTOR1A mutant lysate, 635 nm fluorescence, higher = more signal
Examples of compounds with documented composite z-score follow.

Use the examples below as a reference point.
CCO[C@H](c1cc(OC)cc([N+](=O)[O-])c1OC)[C@H](C)[C@@H](OC)[C@H](C)C=CCC(=O)OC
0.294
C#CCCCON=C1C[C@@H](O)[C@@H](O)[C@@H]2[C@@H]3C(=O)N(CC)C(=O)[C@@H]3CC[C@H]12
0.937
C[C@H]1CC[C@H]2C(=O)N[C@H](Cc3ccccc3)C(=O)N2[C@@H]1c1ccccc1
0.52
COC(=O)[C@H](C)NC(=O)CCC1CC(OC(=O)NCc2ccc3c(c2)OCO3)CC2(CCCC(COC(=O)NCc3ccccc3)O2)O1 (stereo not given in full)
0.177

--- query ---
In: Fill in the blank: the reported composite z-score of CC(=O)OC[C@H]1O[C@H](CC=NO[C@@H](C)c2cn([C@H](CO)Cc3ccccc3)nn2)C=C[C@@H]1OC(C)=O is ____.
Out: 0.692

* * *

ASSAY NAME: modulators of HCV replicon luciferase signal, primary screen, HCV replication inhibitor project, Huh7 cells, luciferase reporter (AID 1109);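 also: huh7 hepatoma cells harbouring a luciferase neomycin HCV replicon reporter; luciferase luminescence as measure of HCV replicon replication; test concentration not given here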
CONDITIONS USED: 48 h, higher = more signal
Decide by z-score: equal to or exceeding -0.4 means fulfilled, less means not fulfilled.

C=C(C)C(=O)OC[C@H]1CN2[C@@H](CC[C@@H](C)[C@@H]2c2ccc(Br)cc2)C(=O)O1
fulfilled
C[C@@H]1CC[C@@H](C(=O)O)N[C@H]1c1cccc(N2CCOCC2)c1
fulfilled
CON=C(C)CCC(=O)OC[C@H]1O[C@H](C#Cc2ccccc2)C=C[C@@H]1Oc1ccc(C)cc1
not fulfilled
CCN1C(=O)[C@H]2[C@H]3[C@H](O)[C@H](O)CC(=NOCC(C)C)[C@H]3CC[C@H]2C1=O
fulfilled
CCN1C(C)=C(C(=O)OC)[C@@H](c2ccccc2)N2C(=O)[C@](O)(C(=O)OC)CC(C(C)=O)=C12
fulfilled

In: Item CC(C)=CCCC(C)=CCON=C1C[C@@H](O)[C@@H](O)[C@@H]2[C@@H]3C(=O)N(c4cccc(Oc5ccccc5)c4)C(=O)[C@@H]3CC[C@H]12 with z-score of -0.4 or above?
Out: fulfilled

In: Item COC(=O)[C@@H]1CC[C@H](C)[C@@H](c2ccc(Br)cc2)N1 with z-score of -0.4 or above?
Out: fulfilled

* * *

MEASURED ON: Carbonic anhydrase 2 (Homo sapiens)
ASSAY NAME: CAII small-molecule binders, profiling panel, biochemical, small-molecule microarray, Alexa647-labelled CAII (AID 1122)
CONDITIONS USED: CAII-A647 binding fluorescence, higher = more signal
Examples of compounds with documented composite z-score follow.

Use the examples below as a reference point.
CC(CCN1CCCc2nc(C)c(C)cc21)=NO[C@@H](C)c1cn([C@H](CO)Cc2ccccc2)nn1
0.074
CC#CCOCCC=C1c2ccccc2[C@@H](OC)[C@@H]1C
0.336
CC(C)CON=C1C[C@@H](O)[C@@H](O)[C@@H]2[C@@H]3C(=O)N(Cc4ccccc4)C(=O)[C@@H]3CC[C@H]12
0.0889
CC(CCN1CCCc2nc(C)c(C)cc21)=NOC[C@@H](C)[C@H](OCc1ccccc1)C(C)C
-0.358

In: Fill in the blank: the reported composite z-score of O=C1C[C@@H](O)[C@@H](O)[C@@H]2[C@@H]3C(=O)N(C4CCCCC4)C(=O)[C@@H]3CC[C@@H]12 is ____.
Out: 0.167

* * *

Examples of compounds with documented composite z-score follow.
MEASURED ON: Alpha-bungarotoxin (Bungarus multicinctus) (UniProt P60615)
Sequence (P60615 whole entry, looked up): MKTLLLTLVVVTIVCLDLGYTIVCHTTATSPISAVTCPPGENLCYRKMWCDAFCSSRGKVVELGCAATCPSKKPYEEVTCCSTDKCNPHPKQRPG
ASSAY NAME: alpha-bungarotoxin binders on microarray, profiling panel, artefact control for SMM control protein annotation, biochemical, small-molecule microarray, Alexa647 label, 635/667 nm fluorescence (AID 1117)
CONDITIONS USED: alpha-BTX-A647 binding fluorescence, higher = more signal
The response must contain the number and no unit.

Use the examples below as a reference point.
CCN1C(=O)[C@H]2[C@H]3[C@H](O)[C@H](O)CC(=NOCC=C(C)CCC=C(C)C)[C@@H]3CC[C@H]2C1=O
0.791
CC(C)(C)N1C(=O)[C@H]2[C@H]3[C@H](O)[C@H](O)CC(=NOC[C@@H](O)COCc4ccco4)[C@@H]3CC[C@H]2C1=O
1.65

--- query ---
In: Fill in the blank: the reported composite z-score of CCN(CC)CC(O)CN1CCCCc2nc(C)c(C)cc21 (stereo not drawn) is ____.
Out: 0.695

* * *

ASSAY NAME: E. coli growth modulation, two-sided OD650, primary screen, E. coli filamentation project, strain DRC41, 24 h (AID 1093);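 also: MC1000 strain lacking acrAB efflux and sulA so SOS filamentation is blocked; test concentration not given here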
CONDITIONS USED: OD650, 24 h, higher = more signal, called active from +8 up or from −8 down
Lab note: class by z-score, see low band: < -0.4; middle band: ≥ -0.4 and < 0.5; high band: ≥ 0.5

Look over these answered cases.
O=C1[C@H]2[C@H]3[C@H](O)[C@H](O)CC(=NOCc4ccccc4)[C@@H]3CC[C@H]2C(=O)N1c1cccc(Oc2ccccc2)c1
high band
CCOC(=O)[C@H](CC(C)C)NC(=O)CCC1CC(OC(=O)NCCc2ccc(F)cc2)CC2(CCCC(COC(=O)NCCOC)O2)O1 (some centres not stated)
low band
CCOC(=O)[C@H](Cc1ccccc1)NC(=O)CCC1CC(OC(=O)NCc2ccc3c(c2)OCO3)CC2(CCCC(COC(=O)NCCc3ccc(Cl)cc3)O2)O1 (some centres not stated)
low band
CON(C)C(=O)c1nnc2c(n1)[nH]c1ccccc12
high band
CCOC(=O)[C@H](CC(C)C)NC(=O)CCC1CC(OC(=O)NCCc2ccc(F)cc2)CC2(CCCC(COC(=O)NCc3cccc4ccccc34)O2)O1 (some centres not stated)
middle band

In: Form: Item = CC(C)(C)N1C(=O)[C@H]2[C@@H]3C(=CC[C@H]2C1=O)C(=O)[C@H]1O[C@H]1[C@H]3O ; Class = ?
Out: low band

In: Form: Item = CO[C@H]1COC(=O)CC=C[C@@H](C)COC(=O)[C@H]2CCCN2C(=O)CC=C[C@H]1C ; Class = ?
Out: middle band

In: Form: Item = CC(=O)OC[C@H]1O[C@H](CCON=C(C)CCN2CCCc3nc(C)c(C)cc32)C=C[C@@H]1OC(C)=O ; Class = ?
Out: high band

In: Form: Item = CC(C)CN1CCc2nc(-c3ccccc3)c3c(c2C1)CO[C@@H](C)C3 ; Class = ?
Out: high band

In: Form: Item = COC(=O)[C@H](C)NC(=O)CCC1CC(OC(=O)NCCc2ccc(F)cc2)CC2(CCCC(COC(=O)NCC3CCCCC3)O2)O1 (some centres not stated) ; Class = ?
Out: low band

In: Form: Item = O=C1C=C[C@@H](O)[C@@H]2[C@@H]3C(=O)N(Cc4ccc5c(c4)OCO5)C(=O)[C@@H]3CC[C@@H]12 ; Class = ?
Out: middle band

In: Form: Item = C#CCCCON=C1[C@H]2CCn3c(=O)n(Cc4cc5c(cc4Cl)OCO5)c(=O)n3[C@H]2[C@H](O)[C@@H]2O[C@H]12 ; Class = ?
Out: middle band

In: Form: Item = CC(C)=CCCC(C)=CCON=C1C[C@@H](O)[C@@H](O)[C@@H]2[C@@H]3C(=O)N(Cc4ccc5c(c4)OCO5)C(=O)[C@@H]3CC[C@H]12 ; Class = ?
Out: middle band

In: Form: Item = COC(=O)[C@@H]1CC[C@H](C)[C@@H](c2ccc(C)cc2)N1C(=O)c1ccc(C=NOC[C@H]2O[C@H](c3ccccc3)C=C[C@@H]2Oc2ccc(OC)cc2)cc1 ; Class = ?
Out: middle band

In: Form: Item = CO[C@H]1COC(=O)[C@H](C)COC(=O)[C@H](C)NC(=O)CC=C[C@H]1C ; Class = ?
Out: high band
